Every entry's value here was drawn from patent US11753407B2.

Please go through the items and note down their EC (1.5-fold increase).
tested on: SMN2 minigene mRNA (SMN2-A minigene) in HEK293H cells; test: SMN2 minigene mRNA splicing RT-qPCR assay in cultured cells; assay type: cell-based, human; conditions: Homo sapiens, HEK293-H; concentration increasing full length SMN2 mRNA 1.5-fold relative to vehicle-treated cells; HEK293H cells with SMN2-A minigene, 24 hours, 7-point concentration data; read-out: EC1.5x for production of full length SMN2 mRNA

In the examples that follow, each entry is paired with its recorded EC (1.5-fold increase).
compound="Cc1cc(C2CCNCC2)cn2c(=O)cc(-c3ccc4nn(C)cc4c3)nc12 [Compound 721]" study_target="SMN2 minigene mRNA (SMN2-A minigene) in HEK293H cells" measurement="< 0.1 µM"
compound="CC1(C)CN(c2ccc3nc(-c4ccc5c(c4)OCCO5)cc(=O)n3c2)CCN1 [Compound 36]" study_target="SMN2 minigene mRNA (SMN2-A minigene) in HEK293H cells" measurement="3 to 30 µM"

GET /values?readout=EC (1.5-fold increase)&item= N#Cc1ccc(-c2cc(=O)n3cc(N4CCNCC4)ccc3n2)cc1 [Compound 73] 3 to 30 µM
